SYSTEM: Fatty-acid amide hydrolase 1 (Rattus norvegicus, UniProt P97612)
Sequence (P97612 whole entry): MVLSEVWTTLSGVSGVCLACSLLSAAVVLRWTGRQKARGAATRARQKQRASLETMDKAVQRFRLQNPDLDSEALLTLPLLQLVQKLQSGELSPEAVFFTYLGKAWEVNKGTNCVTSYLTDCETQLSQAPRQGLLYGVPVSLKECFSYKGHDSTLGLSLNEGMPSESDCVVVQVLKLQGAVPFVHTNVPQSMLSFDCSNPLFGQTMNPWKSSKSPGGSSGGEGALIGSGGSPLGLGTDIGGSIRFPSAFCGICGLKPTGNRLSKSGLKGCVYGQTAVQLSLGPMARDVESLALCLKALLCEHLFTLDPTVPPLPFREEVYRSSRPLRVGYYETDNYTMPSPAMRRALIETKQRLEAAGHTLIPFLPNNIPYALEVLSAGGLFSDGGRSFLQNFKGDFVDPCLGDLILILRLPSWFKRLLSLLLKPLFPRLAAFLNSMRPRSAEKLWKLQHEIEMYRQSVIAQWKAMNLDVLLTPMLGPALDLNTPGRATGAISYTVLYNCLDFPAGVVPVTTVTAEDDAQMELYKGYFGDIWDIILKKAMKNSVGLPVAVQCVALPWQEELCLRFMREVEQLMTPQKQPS
EXPERIMENTAL PROTOCOL: Inhibition of rat recombinant His/GST-tagged FAAH expressed in Escherichia coli cells using AAMCA as substrate incubated for 15 mins followed by substrate addition and measured after every 20 mins for 4 hrs by fluorescence based assay
pIC50: −log10 of the molar value.
pIC50 below 8 gives Not met; pIC50 at or above it gives Met.

Qu. Is it the case that O=C(Oc1cccc(N2CCOCC2)c1)N1CCC(c2ccc(F)cc2)CC1 has pIC50 reaching or exceeding 8?
Ans. Met

Qu. Is it the case that C[C@H]1CN(c2ccc(F)cc2)CCN1C(=O)Oc1cccc(N2CCS(=O)(=O)CC2)c1 has pIC50 reaching or exceeding 8?
Ans. Not met

Qu. Is it the case that O=C(Oc1cccc(N2CCS(=O)(=O)CC2)c1)N1CCN(Cc2cccc(-c3ccccc3)c2)CC1 has pIC50 reaching or exceeding 8?
Ans. Met

Qu. Is it the case that O=C(Oc1cccc(N2CCS(=O)(=O)CC2)c1)N1C[C@@H]2C[C@H]1CN2c1ccc(F)cc1 has pIC50 reaching or exceeding 8?
Ans. Not met
